method_summary: Oral bioavailability in rat
Type: ADME, organism-based
condition_details: in vivo
readout: bioavailability (%)

>>> obs_value("O=C(NO)[C@@]1(O)COCC[C@H]1S(=O)(=O)c1ccc(OCc2ccc(Cl)cc2Cl)cc1")
7

* * *

measurement_target: UniProt P03956
Sequence (P03956 whole entry): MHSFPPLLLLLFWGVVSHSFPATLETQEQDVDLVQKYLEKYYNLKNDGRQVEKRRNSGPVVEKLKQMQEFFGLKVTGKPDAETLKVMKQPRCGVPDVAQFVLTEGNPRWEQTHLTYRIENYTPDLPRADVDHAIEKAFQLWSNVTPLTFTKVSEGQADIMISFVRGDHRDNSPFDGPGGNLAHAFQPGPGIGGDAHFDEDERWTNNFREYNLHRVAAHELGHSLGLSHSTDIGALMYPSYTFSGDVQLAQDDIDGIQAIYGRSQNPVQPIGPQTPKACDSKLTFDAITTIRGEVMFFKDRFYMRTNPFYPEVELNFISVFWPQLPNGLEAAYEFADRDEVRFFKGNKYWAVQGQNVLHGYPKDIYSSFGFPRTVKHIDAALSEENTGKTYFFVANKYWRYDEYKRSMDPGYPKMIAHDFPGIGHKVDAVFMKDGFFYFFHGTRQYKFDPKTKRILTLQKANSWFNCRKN
pIC50: −log10 of the molar value.
readout: pIC50

>>> obs_value("O=C(NO)[C@@]1(O)COCC[C@H]1S(=O)(=O)c1ccc(OCc2ccc(Cl)cc2)cc1")
5.85
>>> obs_value("O=C(NO)[C@@]1(O)COCC[C@H]1S(=O)(=O)c1ccc(OCc2cccc(Cl)c2)cc1")
5.10
>>> obs_value("Cc1cccc(Oc2ccc(S(=O)(=O)[C@@H]3CCOC[C@]3(O)C(=O)NO)cc2)c1")
6.57
>>> obs_value("Cc1ccc(Oc2ccc(S(=O)(=O)[C@@H]3CCOC[C@]3(O)C(=O)NO)cc2)cc1")
6.92

* * *

Sequence of the target: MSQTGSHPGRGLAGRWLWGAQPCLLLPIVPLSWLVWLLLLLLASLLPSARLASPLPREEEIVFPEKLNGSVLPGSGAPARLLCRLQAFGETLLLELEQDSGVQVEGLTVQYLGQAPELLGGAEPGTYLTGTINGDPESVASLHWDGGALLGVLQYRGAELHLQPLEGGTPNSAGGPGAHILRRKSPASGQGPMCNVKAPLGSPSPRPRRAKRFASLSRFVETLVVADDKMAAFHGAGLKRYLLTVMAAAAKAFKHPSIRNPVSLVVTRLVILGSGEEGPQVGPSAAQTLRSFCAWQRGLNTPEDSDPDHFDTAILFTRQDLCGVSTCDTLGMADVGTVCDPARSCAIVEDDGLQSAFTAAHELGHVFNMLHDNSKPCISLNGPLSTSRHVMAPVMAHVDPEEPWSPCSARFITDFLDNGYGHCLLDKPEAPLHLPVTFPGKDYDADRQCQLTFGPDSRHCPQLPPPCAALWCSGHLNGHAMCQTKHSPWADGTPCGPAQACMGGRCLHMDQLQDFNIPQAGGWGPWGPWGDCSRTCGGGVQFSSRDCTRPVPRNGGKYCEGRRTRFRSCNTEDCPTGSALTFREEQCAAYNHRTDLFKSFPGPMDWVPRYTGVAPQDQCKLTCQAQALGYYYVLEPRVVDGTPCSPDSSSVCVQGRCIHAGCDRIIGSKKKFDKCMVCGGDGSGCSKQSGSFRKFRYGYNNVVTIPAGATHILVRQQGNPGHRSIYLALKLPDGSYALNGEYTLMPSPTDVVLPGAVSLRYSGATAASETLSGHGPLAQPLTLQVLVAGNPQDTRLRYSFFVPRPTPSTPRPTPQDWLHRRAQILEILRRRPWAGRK
pIC50: −log10 of the molar value.
readout: pIC50

>>> obs_value("CO[C@]1(C(=O)NO)COCC[C@H]1S(=O)(=O)c1ccc(OCc2ccc(Cl)cc2Cl)cc1")
7.00
>>> obs_value("O=C(NO)[C@@]1(O)COCC[C@H]1S(=O)(=O)c1ccc(OCc2ccccc2Cl)cc1")
7.40
>>> obs_value("Cc1ccc(C)c(COc2ccc(S(=O)(=O)[C@@H]3CCOC[C@]3(O)C(=O)NO)cc2)c1")
7.59
>>> obs_value("CO[C@]1(C(=O)NO)COCC[C@H]1S(=O)(=O)c1ccc(OCc2ccccc2Cl)cc1")
7.00
>>> obs_value("Cc1ccccc1COc1ccc(S(=O)(=O)[C@@H]2CCOC[C@]2(O)C(=O)NO)cc1")
7.26
>>> obs_value("Cc1ccc(COc2ccc(S(=O)(=O)[C@@H]3CCOC[C@]3(O)C(=O)NO)cc2)c(C)c1")
6.43

* * *

# IC50 measurements, system: Collagenase 3 (Homo sapiens, UniProt P45452)
readout: IC50 (nM)

>>> obs_value("O=C(NO)[C@@]1(O)COCC[C@H]1S(=O)(=O)c1ccc(OCc2cc(Cl)ccc2Cl)cc1")
13
>>> obs_value("Cc1ccc(COc2ccc(S(=O)(=O)[C@@H]3CCOC[C@]3(O)C(=O)NO)cc2)cc1")
1.3
>>> obs_value("O=C(NO)[C@@]1(O)COCC[C@H]1S(=O)(=O)c1ccc(OCc2ccccc2Cl)cc1")
2.7
>>> obs_value("Cc1ccc(-c2ccc(S(=O)(=O)[C@@H]3CCOC[C@]3(O)C(=O)NO)cc2)cc1")
0.39
>>> obs_value("Cc1cccc(Oc2ccc(S(=O)(=O)[C@@H]3CCOC[C@]3(O)C(=O)NO)cc2)c1")
1.1
>>> obs_value("O=C(NO)[C@@]1(O)COCC[C@H]1S(=O)(=O)c1ccc(OCc2cccc(Cl)c2Cl)cc1")
15
>>> obs_value("O=C(NO)[C@@]1(O)COCC[C@H]1S(=O)(=O)c1ccc(OCc2ccc(Cl)cc2)cc1")
0.88
>>> obs_value("Cc1ccc(COc2ccc(S(=O)(=O)[C@@H]3CCOC[C@]3(O)C(=O)NO)cc2)c(C)c1")
17
>>> obs_value("O=C(NO)[C@@]1(O)COCC[C@H]1S(=O)(=O)c1ccc(OCc2cccc(Cl)c2)cc1")
2.4
>>> obs_value("Cc1cccc(-c2ccc(S(=O)(=O)[C@@H]3CCOC[C@]3(O)C(=O)NO)cc2)c1")
0.43
>>> obs_value("Cc1ccc(Oc2ccc(S(=O)(=O)[C@@H]3CCOC[C@]3(O)C(=O)NO)cc2)cc1")
1
>>> obs_value("Cc1ccccc1COc1ccc(S(=O)(=O)[C@@H]2CCOC[C@]2(O)C(=O)NO)cc1")
21

* * *

# IC50 measurements, system: A disintegrin and metalloproteinase with thrombospondin motifs 4 (Homo sapiens)
readout: IC50

>>> obs_value("O=C(NO)[C@@]1(O)COCC[C@H]1S(=O)(=O)c1ccc(OCc2ccc(Cl)cc2Cl)cc1")
"8.1 nM"
>>> obs_value("O=C(NO)[C@@]1(O)COCC[C@H]1S(=O)(=O)c1ccc(OCc2cccc(Cl)c2Cl)cc1")
"140 nM"
>>> obs_value("O=C(NO)[C@@]1(O)COCC[C@H]1S(=O)(=O)c1ccc(OCc2ccccc2C(F)(F)F)cc1")
"220 nM"
>>> obs_value("Cc1ccc(Oc2ccc(S(=O)(=O)[C@@H]3CCOC[C@]3(O)C(=O)NO)cc2)cc1")
"> 1000 nM"

* * *

# IC50 measurements, system: A disintegrin and metalloproteinase with thrombospondin motifs 4 (Homo sapiens)
readout: IC50

>>> obs_value("Cc1cccc(-c2ccc(S(=O)(=O)[C@@H]3CCOC[C@]3(O)C(=O)NO)cc2)c1")
"> 1000 nM"
>>> obs_value("Cc1ccccc1Oc1ccc(S(=O)(=O)[C@@H]2CCOC[C@]2(O)C(=O)NO)cc1")
"> 1000 nM"
>>> obs_value("Cc1ccc(COc2ccc(S(=O)(=O)[C@@H]3CCOC[C@]3(O)C(=O)NO)cc2)cc1")
"> 1000 nM"
